Values were extracted from ChEMBL document CHEMBL1649064.

Measurement description: Therapeutic index, ratio of IC50 for mouse RAW264.7 cells to IC50 for mefloquine-susceptible Plasmodium falciparum CDC Indochina 3 W2
Format: cell-based
Assay conditions: read-out: TI
Lab note: anything with selectivity ratio at or over 2 counts as Satisfied; the rest go in Not satisfied.

{"columns": ["Compound", "Assigned category"],
 "data": [
  ["COc1cc(C)c2c(-c3cccc(C)c3)c(OC)cc(NC(C)CCCN)c2n1.O=C(O)CCC(=O)O (stereo not drawn)", "Satisfied"]
]}

[in] Record COc1cc(NC(C)CCCN)c2nc(C(F)(F)F)cc(C)c2c1-c1ccc(C(F)(F)F)cc1.O=C(O)CCC(=O)O (stereo not drawn) ; criterion: selectivity ratio no lower than 2. Met?
[out] Satisfied

[in] Continue with COc1cc(NC(C)CCCNC(=O)OC(C)(C)C)c2nc(C(F)(F)F)cc(C)c2c1-c1cccc(C(F)(F)F)c1 (stereo not drawn)
[out] Satisfied

[in] Please answer likewise for COc1cc(C)c2c(-c3ccc(C(F)(F)F)cc3)c(OC)cc(NC(C)CCCN)c2n1.O=C(O)CCC(=O)O (stereo not drawn)
[out] Not satisfied

[in] Now consider COc1cc(C)c2c(-c3ccccc3)c(OC)cc(NC(C)CCCN)c2n1.O=C(O)CCC(=O)O (stereo not drawn) and answer again.
[out] Not satisfied

[in] Next compound: COc1cc(C)c2c(-c3ccc(Cl)c(Cl)c3)c(OC)cc(NC(C)CCCN)c2n1.O=C(O)CCC(=O)O (stereo not drawn)
[out] Not satisfied

[in] Same for COc1cc(NC(C)CCCN)c2ncccc2c1 (stereo not drawn) [PRIMAQUINE]
[out] Satisfied

[in] Input COc1cc(C)c2c(-c3cccc(C(F)(F)F)c3)c(OC)cc(NC(C)CCCN)c2n1.O=C(O)CCC(=O)O (stereo not drawn)
[out] Not satisfied

[in] Also COc1cccc(-c2c(OC)cc(NC(C)CCCNC(=O)OC(C)(C)C)c3nc(C(F)(F)F)cc(C)c23)c1 (stereo not drawn) , if possible.
[out] Satisfied

[in] Then COc1cc(NC(C)CCCN)c2nc(C(F)(F)F)cc(C)c2c1-c1ccccc1.O=C(O)CCC(=O)O (stereo not drawn) ?
[out] Satisfied

[in] Please do the same for COc1cc(C)c2c(Oc3cccc(C(F)(F)F)c3)c(OC)cc(NC(C)CCCN)c2n1 (stereo not drawn) [TAFENOQUINE] as well.
[out] Satisfied

[in] Now consider COc1cc(NC(C)CCCN)c2nc(C(F)(F)F)cc(C)c2c1-c1cccc(C(F)(F)F)c1.O=C(O)CCC(=O)O (stereo not drawn) .
[out] Satisfied

====

Recorded half-life for the following compounds
Measurement description: Half life in mouse microsomes by LC-MS/MS analysis
Type: ADME, Microsome

{"columns": ["Compound", "Value reported"],
 "data": [
  ["COc1cc(C)c2c(-c3ccccc3)c(OC)cc(NC(C)CCCN)c2n1.O=C(O)CCC(=O)O (stereo not drawn)", "> 60 min"]
]}

[in] Quick one: half-life for COc1cc(C)c2c(-c3ccc(Cl)c(Cl)c3)c(OC)cc(NC(C)CCCN)c2n1.O=C(O)CCC(=O)O (stereo not drawn) ?
[out] > 60 min

[in] Follow-up entry: COc1cccc(-c2c(OC)cc(NC(C)CCCNC(=O)OC(C)(C)C)c3nc(C(F)(F)F)cc(C)c23)c1 (stereo not drawn)
[out] 8 min
